Origin of the recorded values: PubChem BioAssay (NCATS)

Measured max response by item
Assay: qHTS assay for small molecule agonists of the antioxidant response element (ARE) signaling pathway measured by Nrf2-dependant transcriptional activity - cell viability counter screen (AID 720653); also: % is scaled to controls: 0 for no effect and ±100 for the full control effect
Details: ARE-bla HepG2 viability, CellTiter-Glo ATP luminescence, 16 h; stronger effect = lower value
Results filed as inconclusive are left out.
Your answer should be a plain number; it is taken to be in %.

// worked examples, max response included
Cc1ccc2cc3c(ccc4ccccc43)c3c2c1CC3; -7.15
CC(C)OC(=O)Nc1ccccc1; -3.27
O=Cc1ccccc1; -5.51
CC(=O)/C=C/c1ccccc1; -6.98
CC(C)(c1ccc(OCC2CO2)cc1)c1ccc(OCC2CO2)cc1 (stereo not given); -3.1

Challenge: Given the compound C[C@H]1O[C@H](OC2[C@@H](O)[C@@H](O)C(O)[C@H](O)[C@H]2O)[C@@H](N)C[C@@H]1N=C(N)C(=O)O (stereo not given in full) , write its reported max response.
Response given: 3.51

Challenge: Provide max response value for the following compound: `C[C@@H]1Cc2c(Cl)cc(C(=O)N[C@@H](Cc3ccccc3)C(=O)O)c(O)c2C(=O)O1`
Response given: 9.38

Challenge: Give the value of max response reported for the following: `CCCCOP(=O)(O)OCCCC`
Response given: -8.15

Challenge: Fill in reported max response for this entry: `C[C@]12CC[C@H]3[C@@H](CCC4=CC(=O)CC[C@@]43C)[C@@H]1CC[C@H]2O`
Response given: 1.08

Challenge: Name the recorded max response of the compound listed here: COC1=CC(=O)OC(CCc2ccc3c(c2)OCO3)C1 (stereo not given)
Response given: -4.13
